Experiment Notes: in vitro
Conditions Used: mouse, P388 cells
Description: Selectivity index, ratio of ED50 for mice (Mus musculus) P388 cells to ED50 for chloroquine-resistant Plasmodium falciparum W2
Listed compounds paired with reported selectivity ratio
Please give only the number in your answer, with no unit.

Look over these answered cases.
1. COc1ccc2cc1Oc1ccc(cc1)C[C@H]1c3c(cc(OC)c(O)c3Oc3cc4c(cc3OC)CCN(C)[C@@H]4C2)CCN1C
13
2. COc1ccc2cc1Oc1ccc(cc1)C[C@H]1c3cc(c(OC)cc3CCN1C)Oc1c(O)c(OC)cc3c1[C@@H](C2)N(C)CC3
32
3. COc1ccc2cc1Oc1ccc(cc1)C[C@H]1c3c(cc4c(c3Oc3cc5c(cc3OC)CCN(C)[C@@H]5C2)OCO4)CCN1C
1
4. COc1ccc2cc1Oc1ccc(cc1)C[C@H]1c3c(cc(OC)c(OC)c3Oc3cc4c(cc3OC)CCN(C)[C@@H]4C2)CCN1C
19
5. COc1ccc2cc1Oc1ccc(cc1)C[C@H]1c3c(cc(OC)c4c3Oc3cc5c(cc3O4)CCN(C)[C@@H]5C2)CCN1C
22
6. COc1ccc2cc1Oc1ccc(cc1)C[C@H]1c3c(cc4c(c3Oc3cc5c(cc3OC)CCN[C@@H]5C2)OCO4)CCN1C
1
7. COc1ccc2cc1Oc1ccc(cc1)C[C@H]1c3cc(c(OC)cc3CCN1C)Oc1c(OC)c(OC)cc3c1[C@@H](C2)NCC3
104
8. COc1ccc2cc1Oc1ccc(cc1)C[C@H]1c3c(cc(OC)c(OC)c3Oc3cc4c(cc3OC)CCN[C@@H]4C2)CCN1C
37

Q) Entry under review: COc1ccc2cc1Oc1ccc(cc1)C[C@H]1c3cc(c(OC)cc3CCN1C)Oc1c(O)c(OC)cc3c1[C@@H](C2)NCC3 . Reported selectivity ratio?
A) 1

Q) # lookup: selectivity ratio of OC(c1cc(C(F)(F)F)nc2c(C(F)(F)F)cccc12)C1CCCCN1 (stereo unspecified)
A) 166
